Tested on: PC-3 PIP/flu tumor-bearing mice
Test: Biodistribution studies in PC-3 PIP/flu tumor-bearing mice
Details: 96 h p.i.
The following molecules are listed with their measured Blood values.
Your answer is read as % IA/g, so omit the unit and give the number.

INSERT INTO results (molecule, unit_text, recorded_result) VALUES
  ('O=C(O)CCC(NC(=O)NC(CCCCNC(=O)C(Cc1ccc2ccccc2c1)NC(=O)C1CCC(CNC(=O)C(CCCCNC(=O)CN2CCN(CC(=O)O)CCN(CC(=O)O)CCN(CC(=O)O)CC2)NC(=O)CCCCCCC(=O)NC(CCCCNC(=O)CCCc2ccc(I)cc2)C(=O)O)CC1)C(=O)O)C(=O)O (stereo not shown) [^177Lu-PSMA-ALB-04, metal not drawn]', '% IA/g', 11.65),
  ('O=C(O)CCC(NC(=O)NC(CCCCNC(=O)C(Cc1ccc2ccccc2c1)NC(=O)C1CCC(n2cc(CC(NC(=O)CN3CCN(CC(=O)O)CCN(CC(=O)O)CCN(CC(=O)O)CC3)C(=O)NC(CCCCNC(=O)CCCc3ccc(I)cc3)C(=O)O)nn2)CC1)C(=O)O)C(=O)O (stereo not shown) [^177Lu-PSMA-ALB-01, metal not drawn]', '% IA/g', 6.68),
  ('O=C(O)CCC(NC(=O)NC(CCCCNC(=O)C(Cc1ccc2ccccc2c1)NC(=O)C1CCC(CNC(=O)C(CCCCNC(=O)CCCc2ccc(I)cc2)NC(=O)CN2CCN(CC(=O)O)CCN(CC(=O)O)CCN(CC(=O)O)CC2)CC1)C(=O)O)C(=O)O (stereo not shown) [^177Lu-PSMA-ALB-03, metal not drawn]', '% IA/g', 7.37);

Prompt: State the measured Blood (PC-3 PIP/flu tumor-bearing mice) of O=C(O)CCC(NC(=O)NC(CCCCNC(=O)C(Cc1ccc2ccccc2c1)NC(=O)C1CCC(CNC(=O)C(CCCCNC(=O)CN2CCN(CC(=O)O)CCN(CC(=O)O)CCN(CC(=O)O)CC2)NC(=O)CC(NC(=O)CC(NC(=O)CCCc2ccc(I)cc2)C(=O)O)C(=O)O)CC1)C(=O)O)C(=O)O (stereo not shown) [^177Lu-PSMA-ALB-05, metal not drawn]
Response: 1.79

====

Below, each of the molecules is paired with its reported Tumor-to-liver value.
System: PC-3 PIP/flu tumor-bearing mice
Assay: Biodistribution studies in PC-3 PIP/flu tumor-bearing mice
Conditions: 1 h p.i.; PC-3 PIP tumor
I'd appreciate a reply containing only the number, no unit.

Here is how some molecules turned out for Tumor-to-liver.
INSERT INTO results (molecule, recorded_result) VALUES
  ('O=C(O)CCC(NC(=O)NC(CCCCNC(=O)C(Cc1ccc2ccccc2c1)NC(=O)C1CCC(CNC(=O)C(CCCCNC(=O)CCCc2ccc(I)cc2)NC(=O)CN2CCN(CC(=O)O)CCN(CC(=O)O)CCN(CC(=O)O)CC2)CC1)C(=O)O)C(=O)O (stereo not shown) [^177Lu-PSMA-ALB-03, metal not drawn]', 1.64),
  ('O=C(O)CCC(NC(=O)NC(CCCCNC(=O)C(Cc1ccc2ccccc2c1)NC(=O)C1CCC(CNC(=O)C(CCCCNC(=O)CN2CCN(CC(=O)O)CCN(CC(=O)O)CCN(CC(=O)O)CC2)NC(=O)CCCCCCC(=O)NC(CCCCNC(=O)CCCc2ccc(I)cc2)C(=O)O)CC1)C(=O)O)C(=O)O (stereo not shown) [^177Lu-PSMA-ALB-04, metal not drawn]', 0.33),
  ('Cc1ccc(CCCC(=O)NCCCC[C@H](NC(=O)CCC(C(=O)O)N2CCN(CC(=O)O)CCN(CC(=O)O)CC2)C(=O)NC[C@H]2CC[C@H](C(=O)N[C@H](Cc3ccc4ccccc4c3)C(=O)NCCCC[C@@H](NC(=O)N[C@H](CCC(=O)O)C(=O)O)C(=O)O)CC2)cc1 (stereo partly shown) [^64Cu-PSMA-ALB-89, metal not drawn]', 3.37);

Moving on to another molecule below.
Prompt: Give the measured Tumor-to-liver for O=C(O)CCC(NC(=O)NC(CCCCNC(=O)C(Cc1ccc2ccccc2c1)NC(=O)C1CCC(CNC(=O)C(CCCCNC(=O)CN2CCN(CC(=O)O)CCN(CC(=O)O)CCN(CC(=O)O)CC2)NC(=O)CC(NC(=O)CC(NC(=O)CCCc2ccc(I)cc2)C(=O)O)C(=O)O)CC1)C(=O)O)C(=O)O (stereo not shown) [^177Lu-PSMA-ALB-05, metal not drawn]
Response: 8.65

====

# key: entry, value: Tumor-to-kidney
Test system: PC-3 PIP/flu tumor-bearing mice
Assay: Biodistribution studies in PC-3 PIP/flu tumor-bearing mice
Settings: 48 h p.i.; PC-3 PIP tumor

INSERT INTO measurements (compound, recorded_result) VALUES
  ('O=C(O)CCC(NC(=O)NC(CCCCNC(=O)C(Cc1ccc2ccccc2c1)NC(=O)C1CCC(n2cc(CC(NC(=O)CN3CCN(CC(=O)O)CCN(CC(=O)O)CCN(CC(=O)O)CC3)C(=O)NC(CCCCNC(=O)CCCc3ccc(I)cc3)C(=O)O)nn2)CC1)C(=O)O)C(=O)O (stereo not drawn) [^177Lu-PSMA-ALB-01, metal not drawn]', '2.64 ± 0.40'),
  ('O=C(O)CCC(NC(=O)NC(CCCCNC(=O)C(Cc1ccc2ccccc2c1)NC(=O)C1CCC(CNC(=O)C(CCCCNC(=O)CCCc2ccc(I)cc2)NC(=O)CN2CCN(CC(=O)O)CCN(CC(=O)O)CCN(CC(=O)O)CC2)CC1)C(=O)O)C(=O)O (stereo not drawn) [^177Lu-PSMA-ALB-03, metal not drawn]', '3.17 ± 0.84');

Prompt: Indicate the recorded Tumor-to-kidney value for this compound: O=C([O-])CN1CCN(CC(=O)[O-])CCN(CC(=O)NCC2CCC(C(=O)N[C@@H](Cc3ccc4ccccc4c3)C(=O)NCCCC[C@H](NC(=O)N[C@@H](CCC(=O)O)C(=O)O)C(=O)O)CC2)CCN(CC(=O)[O-])CC1.[177Lu+3] (stereo partly drawn) [^177Lu-PSMA-617, reference compound]
Response: 81 ± 11

====

compounds and their reported Stomach
Test system: PC-3 PIP/flu tumor-bearing mice
Assay: Biodistribution studies in PC-3 PIP/flu tumor-bearing mice
Conditions: 4 h p.i.

INSERT INTO measurements (compound, assay_system, readout_type, recorded_result) VALUES
  ('Cc1ccc(CCCC(=O)NC(CC(=O)NC(CC(=O)NC(CC(=O)NC(CCCCNC(=O)CN2CCN(CC(=O)O)CCN(CC(=O)O)CCN(CC(=O)O)CC2)C(=O)NCC2CCC(C(=O)NC(Cc3ccc4ccccc4c3)C(=O)NCCCCC(NC(=O)NC(CCC(=O)O)C(=O)O)C(=O)O)CC2)C(=O)O)C(=O)O)C(=O)O)cc1 (stereo not drawn) [^177Lu-PSMA-ALB-08, metal not drawn]', 'PC-3 PIP/flu tumor-bearing mice', 'Stomach', '0.40 ± 0.25 % IA/g'),
  ('O=C(O)CCC(NC(=O)NC(CCCCNC(=O)C(Cc1ccc2ccccc2c1)NC(=O)C1CCC(n2cc(CC(NC(=O)CN3CCN(CC(=O)O)CCN(CC(=O)O)CCN(CC(=O)O)CC3)C(=O)NC(CCCCNC(=O)CCCc3ccc(I)cc3)C(=O)O)nn2)CC1)C(=O)O)C(=O)O (stereo not drawn) [^177Lu-PSMA-ALB-01, metal not drawn]', 'PC-3 PIP/flu tumor-bearing mice', 'Stomach', '3.30 ± 0.05 % IA/g');

Prompt: Please report Stomach for the following compound: O=C(O)CCC(NC(=O)NC(CCCCNC(=O)C(Cc1ccc2ccccc2c1)NC(=O)C1CCC(CNC(=O)C(CCCCNC(=O)CN2CCN(CC(=O)O)CCN(CC(=O)O)CCN(CC(=O)O)CC2)NC(=O)CC(NC(=O)CC(NC(=O)CC(NC(=O)CCCc2ccc(I)cc2)C(=O)O)C(=O)O)C(=O)O)CC1)C(=O)O)C(=O)O (stereo not drawn) [^177Lu-PSMA-ALB-07, metal not drawn]
Response: 1.09 ± 0.30 % IA/g

====

Tested on: PC-3 PIP/flu tumor-bearing mice
Test: Biodistribution studies in PC-3 PIP/flu tumor-bearing mice
Details: 192 h p.i.
readout type: Muscle
Give the number first and the unit second.

// below: answered compounds
INSERT INTO measurements (compound, readout_type, recorded_result) VALUES
  ('O=C(O)CCC(NC(=O)NC(CCCCNC(=O)C(Cc1ccc2ccccc2c1)NC(=O)C1CCC(CNC(=O)C(CCCCNC(=O)CN2CCN(CC(=O)O)CCN(CC(=O)O)CCN(CC(=O)O)CC2)NC(=O)CC(NC(=O)CC(NC(=O)CCCc2ccc(I)cc2)C(=O)O)C(=O)O)CC1)C(=O)O)C(=O)O (stereo not shown) [^177Lu-PSMA-ALB-05, metal not drawn]', 'Muscle', '0.14 ± 0.01 % IA/g'),
  ('O=C(O)CCC(NC(=O)NC(CCCCNC(=O)C(Cc1ccc2ccccc2c1)NC(=O)C1CCC(CNC(=O)C(CCCCNC(=O)CCCc2ccc(I)cc2)NC(=O)CN2CCN(CC(=O)O)CCN(CC(=O)O)CCN(CC(=O)O)CC2)CC1)C(=O)O)C(=O)O (stereo not shown) [^177Lu-PSMA-ALB-03, metal not drawn]', 'Muscle', '0.62 ± 0.04 % IA/g'),
  ('O=C(O)CCC(NC(=O)NC(CCCCNC(=O)C(Cc1ccc2ccccc2c1)NC(=O)C1CCC(n2cc(CC(NC(=O)CN3CCN(CC(=O)O)CCN(CC(=O)O)CCN(CC(=O)O)CC3)C(=O)NC(CCCCNC(=O)CCCc3ccc(I)cc3)C(=O)O)nn2)CC1)C(=O)O)C(=O)O (stereo not shown) [^177Lu-PSMA-ALB-01, metal not drawn]', 'Muscle', '0.64 ± 0.13 % IA/g');

Now for another entry.
Prompt: Supply recorded Muscle for O=C(O)CCC(NC(=O)NC(CCCCNC(=O)C(Cc1ccc2ccccc2c1)NC(=O)C1CCC(CNC(=O)C(CCCCNC(=O)CN2CCN(CC(=O)O)CCN(CC(=O)O)CCN(CC(=O)O)CC2)NC(=O)CCCCCCC(=O)NC(CCCCNC(=O)CCCc2ccc(I)cc2)C(=O)O)CC1)C(=O)O)C(=O)O (stereo not shown) [^177Lu-PSMA-ALB-04, metal not drawn] here.
Response: 0.71 ± 0.54 % IA/g

Hello, the source for this data is patent US11629201B2, in case you need it.
